# System: Lactobacillus gasseri
# Assay Procedure: growth AUC relative to DMSO control (median of replicates) (fraction); higher = more growth (less inhibition), active = hit call of the paper;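 active = AUC reduced over 20% with Padj below 0.05 in at least 2 of 3 replicates; inactive = otherwise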
# Assay Conditions: 20 µM; 24 h
Classes used: active, inactive

>>> assigned_category("Oc1ccc(Cl)cc1Cl")
"inactive"
>>> assigned_category("C=CCOC(=O)C(C)(C)OC(=O)c1cc(-n2c(=O)cc(C(F)(F)F)n(C)c2=O)ccc1Cl")
"inactive"
>>> assigned_category("CN(C)C(=S)SSC(=S)N(C)C")
"inactive"
>>> assigned_category("CNC(=O)Oc1cccc2c1OC(C)(C)C2=O")
"inactive"
>>> assigned_category("CN(C)C(CSS(=O)(=O)[O-])CSS(=O)(=O)O.[Na+]")
"inactive"
>>> assigned_category("N#Cc1c(Cl)c(Cl)c(Cl)c(C#N)c1Cl")
"active"
>>> assigned_category("CC1(C)C(C=C(Cl)Cl)C1C(=O)OCc1cccc(Oc2ccccc2)c1 (mixture of isomers)")
"inactive"
>>> assigned_category("CC(C)OC(=O)Nc1ccccc1")
"inactive"
>>> assigned_category("CCC(=O)Nc1ccc(Cl)c(Cl)c1")
"inactive"
>>> assigned_category("CCOP(=S)(OCC)SCS(=O)(=O)CC")
"inactive"
>>> assigned_category("CCC(C)n1c(=O)[nH]c(C)c(Br)c1=O (configuration not stated)")
"inactive"
>>> assigned_category("CCS(=O)(=O)c1cccnc1S(=O)(=O)NC(=O)Nc1nc(OC)cc(OC)n1")
"inactive"
>>> assigned_category("C=CCN(CC=C)C(=O)C(Cl)Cl")
"inactive"
>>> assigned_category("COC(=O)c1cc(Oc2ccc(Cl)cc2Cl)ccc1[N+](=O)[O-]")
"inactive"
>>> assigned_category("CCCCCCCC(=O)Oc1c(I)cc(C#N)cc1I")
"inactive"
>>> assigned_category("S=C1NCCN1")
"inactive"
>>> assigned_category("CCS(=O)(=O)CCSP(=O)(OC)OC")
"inactive"
>>> assigned_category("CCOP(=S)(OCC)Oc1ccc(=O)n(-c2ccccc2)n1")
"inactive"
>>> assigned_category("CCC(C)Nc1c([N+](=O)[O-])cc(C(C)(C)C)cc1[N+](=O)[O-] (configuration not stated)")
"inactive"
>>> assigned_category("CC(C)(C)N(NC(=O)c1ccc(Cl)cc1)C(=O)c1ccccc1")
"inactive"
>>> assigned_category("Nc1ccc(Cl)cc1Cl")
"inactive"
>>> assigned_category("C[N+]1(C)CCCCC1.[Cl-]")
"inactive"
>>> assigned_category("COC(=O)c1ccccc1S(=O)(=O)NC(=O)Nc1nc(C)nc(OC)n1")
"inactive"
>>> assigned_category("CS/C(C)=N/OC(=O)N(C)SN(C)C(=O)O/N=C(\\C)SC")
"inactive"
>>> assigned_category("COP(=O)(OC)OC=C(Cl)Cl")
"inactive"
>>> assigned_category("COC(=O)NCc1cc(/C(C)=N/OCc2cccc(C)n2)ccc1Cl")
"inactive"
>>> assigned_category("CC(C)(C)C(O)C(Oc1ccc(-c2ccccc2)cc1)n1cncn1 (mixture of isomers)")
"inactive"
>>> assigned_category("CN1CSC(=S)N(C)C1")
"inactive"
>>> assigned_category("ClC1=C(Cl)C2(Cl)C3C(Cl)C=CC3C1(Cl)C2(Cl)Cl (configuration not stated)")
"inactive"
>>> assigned_category("CON(C)C(=O)Nc1ccc(Cl)cc1")
"inactive"
>>> assigned_category("CCOP(=S)(OCC)SCCS(=O)(=O)CC")
"inactive"
>>> assigned_category("CCOP(=S)(OCC)SCCS(=O)CC (configuration not stated)")
"inactive"
>>> assigned_category("O=C(O)C1(O)c2ccccc2-c2ccc(Cl)cc21 (configuration not stated)")
"inactive"
>>> assigned_category("Cc1cc(C(F)(C(F)(F)F)C(F)(F)F)ccc1NC(=O)c1cccc(I)c1C(=O)NC(C)(C)CS(C)(=O)=O")
"inactive"
>>> assigned_category("CC(Cl)(Cl)C(=O)O")
"inactive"
>>> assigned_category("CCCSP(=O)(OCC)Oc1ccc(Br)cc1Cl (configuration not stated)")
"inactive"
>>> assigned_category("CC(C)Nc1nc(Cl)nc(NC(C)C)n1")
"inactive"
>>> assigned_category("COC(=O)COc1ccc(Cl)cc1Cl")
"inactive"
>>> assigned_category("O=C(NC(=O)c1c(F)cccc1F)Nc1cc(Cl)c(Oc2ncc(C(F)(F)F)cc2Cl)c(Cl)c1")
"inactive"
>>> assigned_category("Cc1cnc(C2=NC(C)(C(C)C)C(=O)N2)c(C(=O)O)c1 (configuration not stated)")
"inactive"
>>> assigned_category("COC(=O)c1ccccc1S(=O)(=O)NC(=O)Nc1nc(C)cc(C)n1")
"inactive"
>>> assigned_category("O=C1C=CC(=O)C=C1")
"inactive"

###

# Test system: Bacteroides caccae
# Assay Procedure: growth AUC relative to DMSO control (median of replicates) (fraction); higher = more growth (less inhibition), active = hit call of the paper
# Assay Conditions: 20 µM; 24 h
// growth AUC lookup, one value per entry
Measured Property: growth AUC

>>> result("CC(C)N(C(=O)SCC(Cl)=C(Cl)Cl)C(C)C")
1
>>> result("COc1cc(OC)nc(NC(=O)NS(=O)(=O)c2cc(NC=O)ccc2C(=O)N(C)C)n1")
1.01
>>> result("CCOP(=S)(OCC)Oc1nc(Cl)n(C(C)C)n1")
0.932
>>> result("C=CC1(C)OC(=O)N(c2cc(Cl)cc(Cl)c2)C1=O (stereo not drawn)")
0.985
>>> result("COP(=S)(OC)Oc1ccc(C#N)cc1")
1
>>> result("CCC(C)(c1ccc(O)cc1)c1ccc(O)cc1")
0.989
>>> result("COC(=O)c1ccccc1S(=O)(=O)NC(=O)Nc1nc(C)nc(OC)n1")
1.02
>>> result("CCC(C)Nc1c([N+](=O)[O-])cc(C(C)(C)C)cc1[N+](=O)[O-] (stereo not drawn)")
0.953
>>> result("O=C(O)COc1cc(Cl)c(Cl)cc1Cl")
1.02
>>> result("Clc1ccccc1-c1nnc(-c2ccccc2Cl)nn1")
0.892
>>> result("CCS(=O)Cc1ccccc1OC(=O)NC (stereo not drawn)")
0.98
>>> result("CC1(C)C(/C=C(\\Cl)C(F)(F)F)C1C(=O)OC(C#N)c1cccc(Oc2ccccc2)c1 (stereo not drawn)")
0.951
>>> result("CC1(C)OC(c2ccco2)CN1C(=O)C(Cl)Cl (stereo not drawn)")
1
>>> result("Clc1ccccc1Cl")
1.02
>>> result("CN1COCN(Cc2cnc(Cl)s2)/C1=N/[N+](=O)[O-]")
1
>>> result("C=CCNC(=O)c1c([Si](C)(C)C)sc(C)c1C")
0.964
>>> result("COc1ccccc1N")
1.02
>>> result("Cc1cccc(C)c1N")
1.04

###

# System: Collinsella aerofaciens
# Assay Procedure: growth AUC relative to DMSO control (median of replicates) (fraction); higher = more growth (less inhibition), active = hit call of the paper
# Assay Conditions: 20 µM; 24 h
True means recorded growth AUC is 1 or above; False means it is below 1.

>>> assigned_category("CCOP(=O)(OCC)OCC")
"False"
>>> assigned_category("CC1(C)C(C=C(Cl)Cl)C1C(=O)OC(C#N)c1cccc(Oc2ccccc2)c1 (stereo not drawn)")
"False"
>>> assigned_category("COCC(C)N(C(=O)CCl)c1c(C)csc1C (stereo not drawn)")
"False"
>>> assigned_category("Cc1cc(C(F)(C(F)(F)F)C(F)(F)F)ccc1NC(=O)c1cccc(I)c1C(=O)NC(C)(C)CS(C)(=O)=O")
"True"
>>> assigned_category("CNC(=O)/C(=N\\OC)c1ccccc1Oc1ccccc1")
"True"

###

# Test system: Parabacteroides merdae
# Assay Procedure: growth AUC relative to DMSO control (median of replicates) (fraction); higher = more growth (less inhibition), active = hit call of the paper
# Assay Conditions: 20 µM; 24 h
Measured Property: growth AUC

>>> result("COCc1c(F)c(F)c(COC(=O)[C@@H]2[C@@H](C=C(Cl)Cl)C2(C)C)c(F)c1F")
1.01
>>> result("CON(C)C(=O)Nc1ccc(Cl)cc1")
1.02
>>> result("NCP(=O)(O)O")
1.02
>>> result("CC1(C)[C@H](C=C(Cl)Cl)[C@H]1C(=O)OCc1c(F)c(F)cc(F)c1F")
0.989
>>> result("C#CCN1CC(=O)N(COC(=O)C2C(C=C(C)C)C2(C)C)C1=O (mixture of isomers)")
0.927
>>> result("COC(=O)C(C)N(C(=O)c1ccco1)c1c(C)cccc1C (configuration not stated)")
0.918
>>> result("CCOP(=S)(OCC)SCSC(C)(C)C")
1
>>> result("CCc1cc(C)cc(CC)c1-c1c(OC(=O)C(C)(C)C)n2n(c1=O)CCOCC2")
1.01
>>> result("O=S(=O)(c1ccc(Cl)cc1)c1cc(Cl)c(Cl)cc1Cl")
0.984
>>> result("Cc1cccc2sc3nncn3c12")
1
>>> result("C#CC(C)(C)NC(=O)c1cc(Cl)cc(Cl)c1")
1.01
>>> result("CC(Oc1cc(Cl)c(Cl)cc1Cl)C(=O)O (configuration not stated)")
0.986
>>> result("COP(=O)(OC)O/C(=C\\Cl)c1ccc(Cl)cc1Cl")
1.01
>>> result("CC(C)C1(C)N=C(c2nc3ccccc3cc2C(=O)O)NC1=O (configuration not stated)")
0.997
>>> result("CN(C(=O)COc1nc2ccccc2s1)c1ccccc1")
0.998
>>> result("COP(=O)(OC)OC(Br)C(Cl)(Cl)Br (configuration not stated)")
1.01
>>> result("CCC(C)(CC)c1cc(NC(=O)c2c(OC)cccc2OC)on1")
0.939
>>> result("CCN(Cc1ccc(Cl)nc1)/C(=C/[N+](=O)[O-])NC")
0.989
>>> result("COC(=O)c1cc(Oc2ccc(Cl)cc2Cl)ccc1[N+](=O)[O-]")
0.958
>>> result("CCCSC(=O)N(CCC)CCC")
0.991
>>> result("N#Cc1c(Cl)cccc1Cl")
1.01
>>> result("C=CCC1=C(C)C(OC(=O)C2C(C=C(C)C)C2(C)C)CC1=O (configuration not stated)")
0.96
>>> result("CC(C)N(C)S(=O)(=O)NC(=O)c1cc(-n2c(=O)cc(C(F)(F)F)n(C)c2=O)c(F)cc1Cl")
1
>>> result("CNC(=O)Oc1ccccc1OC(C)C")
0.981
>>> result("CNC(=O)O/N=C(\\C)C(C)S(C)(=O)=O (configuration not stated)")
0.956
>>> result("CC(C)N(Cc1ccccc1)C(=O)C(C)(C)C")
0.948
>>> result("CO/N=C(/C(=O)OC)c1ccccc1CO/N=C(\\C)c1cccc(C(F)(F)F)c1")
0.901
>>> result("C=CC1(C)OC(=O)N(c2cc(Cl)cc(Cl)c2)C1=O (configuration not stated)")
0.982
>>> result("CC1(C)[C@H](C(=O)O[C@H](C#N)c2cccc(Oc3ccccc3)c2)[C@@H]1C=C(Br)Br")
0.921
>>> result("COC(=O)NCc1cc(/C(C)=N/OCc2cccc(C)n2)ccc1Cl")
0.955
>>> result("COP(=S)(OC)Oc1cc(Cl)c(Cl)cc1Cl")
0.983
>>> result("O=C1C2CC=CCC2C(=O)N1SC(Cl)(Cl)Cl (configuration not stated)")
1.02
